Papp B→A for assorted molecules
- Protocol Details: Apparent permeability from basolateral to apical side in human Caco2 cells in absence of P-gp inhibitor by LC-MS/MS analysis
- Format: ADME, cell-based
- Condition Parameters: Caco-2
// note: answer is a bare numeric in ×10⁻⁶ cm/s

CC(C)n1nc(C#Cc2cccc(NC(=O)c3cccc(C(F)(F)F)c3)c2)c2c(N)ncnc21 1

Pending molecule:
Ask | Requested read-out: Papp B→A. Entry: `CC(C)n1nc(C#Cc2cccc3cc(-c4cccc(C(F)(F)F)c4)ncc23)c2c(N)ncnc21`
Reply | 2.6

* * *

The reader will find reported Papp A→B values listed item by item below.
- Protocol Details: Apparent permeability from apical to basolateral side in human Caco2 cells in absence of P-gp inhibitor by LC-MS/MS analysis
- Assay type: ADME, cell-based
- Condition Parameters: Caco-2
Please reply with the bare figure in ×10⁻⁶ cm/s and do not write the unit itself.

CC(C)n1nc(C#Cc2cccc(NC(=O)c3cccc(C(F)(F)F)c3)c2)c2c(N)ncnc21 0.5

API: the following record is the query input.
Ask | Could you tell me which Papp A→B is on file for `CC(C)n1nc(C#Cc2cccc3cc(-c4cccc(C(F)(F)F)c4)ncc23)c2c(N)ncnc21` ?
Reply | 0.8

* * *

Overview of recorded solubility at 24 h for various molecules
- Protocol Details: Solubility of compound at 37 degC incubated for 24 hrs by HPLC method
- Assay type: physicochemical
Quick note: give the figure in µM, leave out the unit.

CC(C)n1nc(C#Cc2cccc(NC(=O)c3cccc(C(F)(F)F)c3)c2)c2c(N)ncnc21 161

# input for lookup
Ask | Give its solubility at 24 h value. Item: `CC(C)n1nc(C#Cc2cccc3cc(-c4cccc(C(F)(F)F)c4)ncc23)c2c(N)ncnc21`
Reply | 60

* * *

The following compounds each carry a recorded IC50 for Tyrosine-protein kinase ABL1 (Homo sapiens).
Quick reminder: number only, in nM, skip the unit.

Worked cases, IC50 given:
CC(C)n1nc(C#Cc2cccc3cc(-c4cccc(C(F)(F)F)c4)ncc23)c2c(N)ncnc21 3
Cc1ccc2cc(-c3cccc(C(F)(F)F)c3)ncc2c1C#Cc1nn(C(C)C)c2ncnc(N)c12 10

# input for lookup
Ask | Can you share its IC50? I mean this compound: `CCn1nc(C#Cc2cccc3cc(-c4cccc(C(F)(F)F)c4)ncc23)c2c(N)ncnc21`
Reply | 3.5

* * *

- Tested System: Serine/threonine-protein kinase B-raf (Homo sapiens, UniProt P15056, V600E)
- Sequence (P15056 2-766 V600E limits assumed): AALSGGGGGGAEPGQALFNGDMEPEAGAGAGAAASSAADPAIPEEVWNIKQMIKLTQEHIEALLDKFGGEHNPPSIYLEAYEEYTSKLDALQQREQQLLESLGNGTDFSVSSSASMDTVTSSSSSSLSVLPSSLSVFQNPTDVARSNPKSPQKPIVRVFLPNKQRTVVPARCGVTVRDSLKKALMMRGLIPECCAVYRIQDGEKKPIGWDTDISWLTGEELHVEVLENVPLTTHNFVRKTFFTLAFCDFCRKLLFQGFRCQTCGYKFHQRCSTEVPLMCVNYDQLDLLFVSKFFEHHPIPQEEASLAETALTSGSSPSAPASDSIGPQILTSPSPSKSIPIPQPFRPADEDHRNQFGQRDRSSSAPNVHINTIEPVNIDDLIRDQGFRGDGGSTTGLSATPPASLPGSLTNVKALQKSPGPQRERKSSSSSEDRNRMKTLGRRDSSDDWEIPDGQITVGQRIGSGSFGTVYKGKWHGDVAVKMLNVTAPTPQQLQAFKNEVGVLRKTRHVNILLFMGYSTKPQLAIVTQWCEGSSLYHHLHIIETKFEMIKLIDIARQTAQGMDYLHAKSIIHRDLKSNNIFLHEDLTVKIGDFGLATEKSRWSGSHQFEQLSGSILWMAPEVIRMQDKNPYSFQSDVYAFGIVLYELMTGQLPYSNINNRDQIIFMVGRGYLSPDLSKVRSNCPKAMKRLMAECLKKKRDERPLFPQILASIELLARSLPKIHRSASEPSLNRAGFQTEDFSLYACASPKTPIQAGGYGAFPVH
- Protocol Details: Inhibition of BRAF V600E mutant (unknown origin) after 20 mins by immunoblotting assay
# strict inequality: IC50 < 50 nM yields rule met, everything else yields rule not met

Some solved cases for reference:
CC(C)n1nc(C#Cc2cccc(NC(=O)c3cccc(C(F)(F)F)c3)c2)c2c(N)ncnc21 rule met
CC(C)n1nc(C#Cc2cccc3cc(-c4ccc(Cl)cc4)ncc23)c2c(N)ncnc21 rule met
CCn1nc(C#Cc2cccc3cc(-c4cccc(C(F)(F)F)c4)ncc23)c2c(N)ncnc21 rule met

Ask | Is IC50 of `CC(C)n1nc(C#Cc2cccc3cc(-c4cccc(C(F)(F)F)c4)ncc23)c2c(N)ncnc21` strictly below 50 nM?
Reply | rule not met

* * *

- Tested System: Bcr/Abl fusion protein (Homo sapiens)
- Sequence (P00519 whole entry, the tested form may be a part): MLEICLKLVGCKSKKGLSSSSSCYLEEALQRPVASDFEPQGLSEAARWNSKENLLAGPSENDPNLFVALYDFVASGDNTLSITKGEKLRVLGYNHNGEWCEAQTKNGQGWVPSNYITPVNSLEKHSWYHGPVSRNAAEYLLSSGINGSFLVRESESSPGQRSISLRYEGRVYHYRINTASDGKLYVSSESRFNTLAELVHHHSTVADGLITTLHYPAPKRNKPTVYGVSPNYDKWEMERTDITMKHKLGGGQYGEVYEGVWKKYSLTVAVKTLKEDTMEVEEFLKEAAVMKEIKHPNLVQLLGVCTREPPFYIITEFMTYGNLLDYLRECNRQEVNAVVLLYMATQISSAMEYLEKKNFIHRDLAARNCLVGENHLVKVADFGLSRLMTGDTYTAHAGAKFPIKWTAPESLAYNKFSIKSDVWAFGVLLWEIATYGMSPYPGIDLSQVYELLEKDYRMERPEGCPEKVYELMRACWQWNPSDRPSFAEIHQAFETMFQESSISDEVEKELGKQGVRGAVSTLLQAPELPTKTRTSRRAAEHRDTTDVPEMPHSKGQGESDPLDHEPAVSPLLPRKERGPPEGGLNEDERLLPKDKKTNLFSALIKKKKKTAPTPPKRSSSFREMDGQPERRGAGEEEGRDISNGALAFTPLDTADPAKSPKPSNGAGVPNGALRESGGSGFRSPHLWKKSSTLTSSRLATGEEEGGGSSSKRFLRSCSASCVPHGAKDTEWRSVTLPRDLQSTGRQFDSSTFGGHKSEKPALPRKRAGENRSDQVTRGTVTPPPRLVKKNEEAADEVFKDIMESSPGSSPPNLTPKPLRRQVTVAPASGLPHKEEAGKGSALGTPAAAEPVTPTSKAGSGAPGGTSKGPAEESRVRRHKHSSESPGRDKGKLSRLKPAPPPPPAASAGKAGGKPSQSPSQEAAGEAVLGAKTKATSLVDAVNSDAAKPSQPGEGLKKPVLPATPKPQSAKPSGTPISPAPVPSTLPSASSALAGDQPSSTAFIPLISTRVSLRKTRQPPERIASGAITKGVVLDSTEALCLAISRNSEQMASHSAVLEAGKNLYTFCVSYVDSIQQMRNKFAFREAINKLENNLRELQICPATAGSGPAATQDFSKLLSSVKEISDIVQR
- Sequence (P11274 whole entry, further chain, the tested form may be a part): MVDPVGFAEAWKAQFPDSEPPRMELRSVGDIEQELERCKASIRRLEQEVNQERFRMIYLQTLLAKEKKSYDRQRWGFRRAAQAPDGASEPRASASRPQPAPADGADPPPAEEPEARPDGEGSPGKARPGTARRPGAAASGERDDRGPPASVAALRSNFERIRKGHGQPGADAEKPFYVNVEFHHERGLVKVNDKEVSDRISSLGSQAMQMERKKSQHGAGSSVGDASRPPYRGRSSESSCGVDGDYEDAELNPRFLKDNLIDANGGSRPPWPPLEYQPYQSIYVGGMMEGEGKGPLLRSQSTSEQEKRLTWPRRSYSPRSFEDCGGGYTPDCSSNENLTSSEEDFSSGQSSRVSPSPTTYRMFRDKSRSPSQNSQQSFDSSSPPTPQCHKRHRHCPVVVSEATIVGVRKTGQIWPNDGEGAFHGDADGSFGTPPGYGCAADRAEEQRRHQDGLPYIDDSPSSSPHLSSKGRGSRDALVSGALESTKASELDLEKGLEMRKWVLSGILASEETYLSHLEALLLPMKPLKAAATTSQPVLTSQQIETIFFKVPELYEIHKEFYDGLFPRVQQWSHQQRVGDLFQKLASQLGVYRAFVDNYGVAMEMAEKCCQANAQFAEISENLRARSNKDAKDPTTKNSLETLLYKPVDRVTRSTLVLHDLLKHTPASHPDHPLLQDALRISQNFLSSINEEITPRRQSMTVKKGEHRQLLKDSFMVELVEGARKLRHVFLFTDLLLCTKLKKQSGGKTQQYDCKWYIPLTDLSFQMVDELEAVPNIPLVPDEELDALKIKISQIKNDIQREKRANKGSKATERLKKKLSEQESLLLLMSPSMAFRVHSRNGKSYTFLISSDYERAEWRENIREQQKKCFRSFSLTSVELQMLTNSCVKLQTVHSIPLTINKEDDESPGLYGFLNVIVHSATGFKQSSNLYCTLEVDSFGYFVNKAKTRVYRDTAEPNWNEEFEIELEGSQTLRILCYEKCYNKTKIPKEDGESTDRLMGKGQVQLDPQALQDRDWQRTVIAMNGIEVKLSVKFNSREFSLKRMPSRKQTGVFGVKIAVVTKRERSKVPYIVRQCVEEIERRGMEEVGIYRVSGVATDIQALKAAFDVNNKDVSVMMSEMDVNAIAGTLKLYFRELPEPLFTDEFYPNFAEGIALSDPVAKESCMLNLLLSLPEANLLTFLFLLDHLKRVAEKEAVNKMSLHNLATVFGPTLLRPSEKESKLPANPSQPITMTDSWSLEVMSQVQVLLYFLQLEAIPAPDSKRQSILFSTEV
- Protocol Details: Inhibition of BCR-ABL (unknown origin) expressed in mouse BA/F3 cells assessed as reduction in ABL phosphorylation at Y412 residue incubated for 3 hrs by immunoblotting assay
Property Measured: IC50 (nM)
Answer with a number only, understood to be in nM.

CC(C)n1nc(C#Cc2cccc(NC(=O)c3cccc(C(F)(F)F)c3)c2)c2c(N)ncnc21 7.5

Switching to the query record.
Ask | # query: IC50 of entry `CC(C)n1nc(C#Cc2cccc3cc(-c4ccc(CN5CCN(C)CC5)cc4)ncc23)c2c(N)ncnc21`
Reply | 211

* * *

- Tested System: Serine/threonine-protein kinase B-raf (Homo sapiens, UniProt P15056, V600E)
- Protocol Details: Inhibition of BRAF V600E mutant (unknown origin) after 20 mins by immunoblotting assay
Listing of recorded IC50 by entry.
Number in nM, nothing else.

Example entries and their recorded answers appear below.
CC(C)n1nc(C#Cc2cccc3cc(-c4ccc(Cl)c(C(F)(F)F)c4)ncc23)c2c(N)ncnc21 87
Cc1ccc(-c2cc3cccc(C#Cc4nn(C(C)C)c5ncnc(N)c45)c3cn2)cc1 24

Turning now to a further record.
Ask | Consider the compound shown here: `Cc1ccc2cc(-c3cccc(C(F)(F)F)c3)ncc2c1C#Cc1nn(C(C)C)c2ncnc(N)c12` What is its recorded IC50?
Reply | 44

Cited source for all entries: ChEMBL document CHEMBL4229333
